Tested on: PC-3 prostate
Test: NCI-60 one-dose screen, 48 h (100 = growth as untreated, 0 = no growth, -100 = all killed)
Details: 10 µM unless noted
Description: Growth inhibition of the PC-3 human tumor cell line is measured as a screen for anti-cancer activity. Cells are grown in 96 well plates and exposed to the test compound for 48 hours. Compounds are tested at a single concentration, which is 10^-5 M for most compounds. The reported endpoint is percent growth (GI% or GIPRCNT), where numbers from 0 - 100% represent growth inhibition, and numbers from -100% - 0 represent cell death. For example, a value of 40 represents 60% growth inhibition. […]
The panel holds about 83,000 compounds, 20% with a hit somewhere; the sample as a whole holds those more often.
Think of 40% as a floor: if growth stands on it or above, it is 1 (yes); beneath it, 0 (no).

>>> class_name("CCOc1ccc(-n2nc(C(=O)Nc3ccccc3)nc2-c2cc(OC)c(OC)c(OC)c2)cc1")
"1 (yes)"
>>> class_name("O=C(CCl)Oc1ccc(-c2ccccc2)c(Br)c1")
"1 (yes)"
>>> class_name("Nc1nc2ncc(CCNc3ccc(C(=O)O)cc3)nc2c(=O)[nH]1")
"1 (yes)"
>>> class_name("CSc1nc(Nc2cccc(NC(=O)/C(C#N)=C/c3c(Cl)cccc3Cl)c2)c(C#N)c(-c2cccc([N+](=O)[O-])c2)n1")
"1 (yes)"
>>> class_name("COc1cc2nc(N3CCCC3)nc(NCCc3ccccc3)c2cc1OC")
"1 (yes)"
>>> class_name("O=C1c2cc3c(cc2-c2c1c1cc(F)c(F)cc1c(=O)n2CCCn1ccnc1)OCO3")
"0 (no)"
>>> class_name("Cn1ccnc1C(=O)/C=C/c1ccc(CC(=O)Nc2ccccc2)cc1")
"0 (no)"
>>> class_name("N#Cc1nnn(-c2ccc(S(N)(=O)=O)cc2)c1NCC(=O)c1ccccc1")
"1 (yes)"
>>> class_name("Nc1n[nH]c2ccc([C@@H]3Nc4cc5c(cc4[C@H]4C6CCC(C6)[C@@H]34)C(=O)NC5)cc12 (stereo not given in full)")
"0 (no)"
>>> class_name("CC1=C[C@H]2c3c(c(O)c(O)c4oc5ccccc5c(=O)c34)[C@H](c3cc(O)c(O)c4oc5ccccc5c(=O)c34)[C@H]2C(C)(C)C1")
"0 (no)"
>>> class_name("CC(=O)c1cc2c(N)c(C(=O)Nc3cccc4ccccc34)sc2nc1C")
"0 (no)"
>>> class_name("Oc1ccccc1-c1nnc(CNc2ccc(Cl)cc2)o1")
"0 (no)"
>>> class_name("Cc1ccc(NS(=O)(=O)c2ccc(-c3cnc(C4CC4)o3)cc2)cc1C")
"0 (no)"
>>> class_name("CC(=O)c1cc(C(=O)c2ccc3c(c2)Sc2ccccc2N3)n2ccccc12")
"0 (no)"
>>> class_name("CC1CCNC(C)C1 (stereo not given)")
"1 (yes)"
>>> class_name("CCNC(=O)Oc1ccc(/C(=C(\\C)c2ccc(Cl)cc2)c2ccc(OCCN(CC)CC)cc2)cc1")
"0 (no)"
>>> class_name("Cc1ccc(NC(=O)C2CCC(CN3CCN(C)CC3)CC2)cc1Nc1nccc(-c2cccnc2)n1 (stereo not given)")
"1 (yes)"
>>> class_name("CCOc1cc2ncc(C#N)c(Nc3ccc(F)c(Cl)c3)c2cc1NC(=O)CC1CCSS1 (stereo not given)")
"0 (no)"
>>> class_name("CN(C)c1ccc(N=Nc2ccccn2)c(O)c1")
"0 (no)"
>>> class_name("O=C1c2cc3c(cc2-c2c1c1ccc(Cl)cc1c(=O)n2CCCN1CCOCC1)OCO3")
"1 (yes)"
>>> class_name("OC(c1cc2cc(Cl)c(Cl)cc2c2cc(C(F)(F)F)ccc12)C1CCCCN1 (stereo not given)")
"0 (no)"
>>> class_name("O=C(/C=C/c1ccccc1)c1ccc(O)c(CN2CCN(c3cc4c(cc3F)c(=O)c(C(=O)O)cn4C3CC3)CC2)c1")
"0 (no)"
>>> class_name("COC[C@H](C)n1c(C2CCOCC2)nc2cnc3cc(-c4c(C)noc4C)c(OC)cc3c21")
"1 (yes)"
>>> class_name("N#C/C(=C\\c1ccc(-c2cc(C(F)(F)F)ccc2Cl)o1)c1nc(-c2ccco2)cs1")
"1 (yes)"
>>> class_name("COc1cc(/C=C/c2cc(/C=C/c3ccc(O)c(OC)c3)n(-c3c(Cl)cccc3Cl)c(=O)n2)ccc1O")
"0 (no)"
>>> class_name("COc1ccc(/C=C2\\Oc3cc(OCCCCN4CCCC4)ccc3C2=O)cc1")
"1 (yes)"
>>> class_name("CSc1ccc(-c2ccccc(=O)c2O)cc1")
"0 (no)"
>>> class_name("C=CC(=O)Nc1cccc(-c2nc(SC)nc(Nc3ccccc3OC)c2C#N)c1")
"0 (no)"
>>> class_name("O=C1c2c(O)cc(O)cc2-c2c(-c3ccc(O)cc3)oc3cc(O)cc1c23")
"1 (yes)"
>>> class_name("O=C1/C(=C(/c2ccccc2)N2CCOCC2)Cc2ccccc21")
"0 (no)"
>>> class_name("O=C(O)c1c(=O)cccc2ssc12")
"0 (no)"
>>> class_name("O=C(N=Nc1c(O)[nH]c2ccc(Br)cc12)c1cc(-c2ccccc2)on1")
"1 (yes)"
>>> class_name("CC(C)(C)c1cc(/C=N\\NC(=O)/C=C/C=C/c2ccc3c(c2)OCO3)c(O)c(C(C)(C)C)c1")
"1 (yes)"
>>> class_name("Clc1ccc2c(NCCCCNc3nc(N4CCCCC4)nc4ccccc34)ccnc2c1")
"0 (no)"
>>> class_name("CCCn1c(=O)[nH]c(N)c([C@H]2c3ccccc3Oc3[nH]c(=O)n(CCC)c(=O)c32)c1=O")
"1 (yes)"
>>> class_name("N#Cc1c(-c2ccc(Cl)cc2)nc(N=Nc2c(O)[nH]c3ccc(Cl)cc23)nc1N1CCOCC1")
"1 (yes)"
>>> class_name("CCN(CC)CCCCNc1c2ccc(Cl)cc2nc2ccc(OC)cc12")
"0 (no)"
>>> class_name("CCCCn1c(-c2ccc(C(=O)O/N=C(\\N)c3ccc4c(c3)OCO4)cc2)nc(-c2ccccc2)c1-c1ccccc1")
"1 (yes)"
>>> class_name("CCN1CCN(c2nc(NCCNc3ccnc4cc(Cl)ccc34)c3ccccc3n2)CC1")
"0 (no)"
